target or test system: Glycogen synthase kinase-3 alpha (Homo sapiens) (UniProt P49840)
Sequence (P49840 whole entry, looked up): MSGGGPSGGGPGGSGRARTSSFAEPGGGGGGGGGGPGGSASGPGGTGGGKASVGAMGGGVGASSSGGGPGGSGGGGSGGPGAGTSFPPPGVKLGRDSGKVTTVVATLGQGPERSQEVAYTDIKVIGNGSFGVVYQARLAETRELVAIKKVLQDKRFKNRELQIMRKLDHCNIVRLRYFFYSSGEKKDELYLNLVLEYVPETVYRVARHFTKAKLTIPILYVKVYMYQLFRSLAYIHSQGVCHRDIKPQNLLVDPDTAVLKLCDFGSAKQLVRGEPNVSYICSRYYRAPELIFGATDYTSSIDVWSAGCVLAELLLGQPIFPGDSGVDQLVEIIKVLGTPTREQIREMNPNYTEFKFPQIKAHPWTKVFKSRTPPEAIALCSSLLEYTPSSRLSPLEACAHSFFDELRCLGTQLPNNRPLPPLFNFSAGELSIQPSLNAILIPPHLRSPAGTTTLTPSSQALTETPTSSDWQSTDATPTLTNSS
experiment notes: concentration-response blocking of human GSK3A – biochemical, luminescence, cell-free homogeneous, retest, dose response (AID 463203)
test context: GSK-3 alpha enzyme, ADP-Glo luminescence, 60 min
Calls of active or inactive are those of the source.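 How the source made its calls: active means more than half of replicate measurements showing over 20% loss of kinase signal relative to plate controls; inconclusive means some but at most half of replicates over 20% loss; inactive means no replicate over 20% signal loss.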
Select the correct class. Options are 1.0 = active, 0.0 = inactive and nothing else.

Please review the following examples before continuing.
- molecule: "Cc1ccc(C(=O)N/C(=C/c2ccc(-c3cccc([N+](=O)[O-])c3)o2)C(=O)NC(C)C)cc1"
  target or test system: "Glycogen synthase kinase-3 alpha (Homo sapiens) (UniProt P49840)"
  label value: 0.0
- molecule: "CC(C)(C)NC(=O)/C(=C\\C=C\\c1ccccc1)NC(=O)c1ccc([N+](=O)[O-])cc1"
  target or test system: "Glycogen synthase kinase-3 alpha (Homo sapiens) (UniProt P49840)"
  label value: 0.0
- molecule: "COc1cc2c(C#N)c(N3CCCC3)nc(N)c2c(N)n1"
  target or test system: "Glycogen synthase kinase-3 alpha (Homo sapiens) (UniProt P49840)"
  label value: 0.0
- molecule: "COc1ccc(-c2nc3ncccn3c2Nc2ccccc2)cc1"
  target or test system: "Glycogen synthase kinase-3 alpha (Homo sapiens) (UniProt P49840)"
  label value: 0.0
- molecule: "COc1ccccc1Nc1ccc(S(=O)(=O)N2CCCCC2)cc1[N+](=O)[O-]"
  target or test system: "Glycogen synthase kinase-3 alpha (Homo sapiens) (UniProt P49840)"
  label value: 0.0
- molecule: "N#Cc1c2ccc(O)cc2n2ccccc12"
  target or test system: "Glycogen synthase kinase-3 alpha (Homo sapiens) (UniProt P49840)"
  label value: 1.0
- molecule: "CCC/C(=N/NC(=O)c1nnn(-c2nonc2N)c1CN1CCCCC1)c1ccccc1"
  target or test system: "Glycogen synthase kinase-3 alpha (Homo sapiens) (UniProt P49840)"
  label value: 1.0
- molecule: "Cc1nnc(SCC(=O)Nc2ccc(Br)cn2)[nH]c1=O"
  target or test system: "Glycogen synthase kinase-3 alpha (Homo sapiens) (UniProt P49840)"
  label value: 1.0

Task item: Entry O=C(CSc1nc2nc(-c3cccs3)cc(C(F)(F)F)c2c(=O)[nH]1)Nc1ccc(F)c(F)c1 : call = ?
Reply: 0.0

Task item: Moving on to CNc1ccc(/C=C/C(=O)c2ccc3c(c2)OCCO3)cc1[N+](=O)[O-]
Reply: 0.0

Task item: Moving on to C/C(CC(=O)N(C(C)C)C(C)C)=N\NC(=O)COc1ccc(Cl)cc1Cl
Reply: 0.0

Task item: Moving on to CN(C)C(=O)c1ccc(NC(=O)c2cc(-n3cnnc3)ccc2Cl)cc1
Reply: 0.0

Task item: Moving on to Fc1ccc(Nc2nc(-c3ccncc3)nc3ccccc23)cc1F
Reply: 0.0

Task item: Moving on to Cc1cccc(C)c1OC(=O)Cc1ccccc1[N+](=O)[O-]
Reply: 0.0

Task item: Moving on to CCOC(=O)c1nnn(-c2nonc2N)c1-c1ccc(F)cc1
Reply: 1.0

Task item: Moving on to CN(C)c1ccc(Nc2nc(N)c3ccccc3n2)cc1
Reply: 1.0

Task item: Moving on to CC1CCCC(C)N1C(=O)COC(=O)Cc1c[nH]c2ccccc12 (centres undefined)
Reply: 0.0

Task item: Moving on to Nn1c(-c2ccc(O)cc2)nnc1-c1ccc(O)cc1
Reply: 0.0

Task item: Moving on to COc1c(-c2ccc(O)cc2)oc2cc(O)cc(O)c2c1=O
Reply: 1.0

Task item: Moving on to N#Cc1cc(Cl)c(NCC2CCCO2)cc1C#N (centres undefined)
Reply: 0.0

Task item: Moving on to N#Cc1cnn2c3c(cnc12)C(=O)N1CCc2ccccc2C1C3 (centres undefined)
Reply: 0.0

Task item: Moving on to CCn1c(=O)[nH]c(=O)c2c(N)c(C(=O)c3cc(F)ccc3F)sc21
Reply: 1.0

Task item: Moving on to O=Cc1c(NCCc2cccc(F)c2)c2ccccc2[nH]c1=O
Reply: 1.0

Task item: Moving on to COc1cc(/C=N/NC(=O)CSCc2ccc([N+](=O)[O-])cc2)cc(OC)c1OC
Reply: 0.0

Task item: Moving on to COc1cccc(C(C[N+](=O)[O-])c2c(C)[nH]n(-c3ccccc3)c2=O)c1 (centres undefined)
Reply: 0.0

Task item: Moving on to CCOc1cc(/C=N/O)ccc1OCc1ccc([N+](=O)[O-])cc1
Reply: 0.0

Task item: Moving on to CC(=C/c1ccccc1)/C=N/NC(=O)c1nnn(-c2nonc2N)c1CN1CCC(C)CC1
Reply: 0.0

Task item: Moving on to CCOc1cccc(-c2c(C(=O)N/N=C(\C)c3ccncc3)nnn2-c2nonc2N)c1
Reply: 1.0

Task item: Moving on to Cc1csc(NC(=O)C2CC(=O)N(c3ccc4c(c3)OCCO4)C2)n1 (centres undefined)
Reply: 0.0
